Tested on: MDA-MB-231
Assay: Cytotoxicity against human MDA-MB-231 cells assessed as reduction in cell viability incubated for 48 hrs by MTT assay
Assay type: functional, cell-based
Conditions: MDA-MB-231, 48 h
Answer each item with its documented IC50.

{"STRUCTURE": "CC[C@H](C)C[C@@H](C)/C=C(\\C)[C@H]1O[C@@H](c2c(O)c(-c3ccccc3)c[nH]c2=O)CC=C1C", "ASSAY READOUT": "IC50", "ENDPOINT VALUE": "5.28 µM"}
{"STRUCTURE": "CC[C@H](C)C[C@@H](C)/C=C(\\C)[C@@H]1O[C@H](c2c(O)c(-c3ccc(O)cc3)cn(C)c2=O)CC[C@H]1C", "ASSAY READOUT": "IC50", "ENDPOINT VALUE": "14.9 µM"}
{"STRUCTURE": "CC[C@H](C)C[C@@H](C)/C=C(\\C)[C@@H]1O[C@H](c2c(O)c(-c3ccc(O)cc3)c[nH]c2=O)CC[C@H]1C", "ASSAY READOUT": "IC50", "ENDPOINT VALUE": "4.4 µM"}
{"STRUCTURE": "C/C=C/[C@@H]1Oc2c(-c3ccccc3)c[nH]c(=O)c2[C@@H]2[C@H]1CCC[C@H]2C", "ASSAY READOUT": "IC50", "ENDPOINT VALUE": "> 50 µM"}

Shifting focus to the molecule that follows.
Input CC[C@H](C)C[C@@H](C)/C=C(\C)[C@@H]1O[C@H](c2c(O)c(-c3ccc(O)cc3)cn(C)c2=O)CC[C@]1(C)O . Output IC50: 8.49 µM
